- System: HCT-116
- method_description: cells
- conditions_used: Homo sapiens, HCT-116, 48 h
- Description: Antiproliferative activity against human HCT-116 cells assessed as inhibition of cell growth incubated for 48 hrs by MTT assay
observation_type: IC50 (µM)
Answer in µM, number only, no unit symbol.

Request - read-out IC50 | tested on HCT-116 | compound C=CC(=O)Nc1cccc(C)c1Nc1cc2c(cn1)cc(-c1c(Cl)c(OC)cc(OC)c1Cl)c(=O)n2CCCO
7.21

Request - read-out IC50 | tested on HCT-116 | compound C=CC(=O)NCCCn1c(=O)c(-c2cc(OC)cc(OC)c2)cc2cnc(Nc3c(C)cccc3N3CCN(C)CC3)cc21
10.8

Request - read-out IC50 | tested on HCT-116 | compound C=CC(=O)NCCCn1c(=O)c(-c2c(Cl)c(OC)cc(OC)c2Cl)cc2cnc(Nc3c(C)cccc3NC(=O)C=C)cc21
4.24

Request - read-out IC50 | tested on HCT-116 | compound C=CC(=O)Nc1cccc(C)c1Nc1ncc2cc(-c3c(Cl)c(OC)cc(OC)c3Cl)ccc2n1
8.89

Request - read-out IC50 | tested on HCT-116 | compound COc1cc(OC)cc(-c2cc3cnc(Nc4c(C)cccc4N4CCOCC4)cc3n(CCCO)c2=O)c1
11.9

Request - read-out IC50 | tested on HCT-116 | compound COc1cc(OC)c(Cl)c(-c2cc3cnc(Nc4c(C)cccc4N4CCCCC4)cc3n(CCCN3CCCCC3)c2=O)c1Cl
9.37

###

- method_description: Antiproliferative activity against human Intestinal epithelial cell assessed as inhibition of cell growth incubated for 48 hrs by MTT assay
- Assay type: toxicity, cell-based
- conditions_used: human intestinal epithelial cells
For each record, write down the corresponding IC50 at 48 h.
Answer in µM, number only, no unit symbol.

Need IC50 at 48 h, item C=CC(=O)Nc1cccc(C)c1Nc1ncc2cc(-c3c(Cl)c(OC)cc(OC)c3Cl)ccc2n1
18.4

Need IC50 at 48 h, item C=CC(=O)NCCCn1c(=O)c(-c2cc(OC)cc(OC)c2)cc2cnc(Nc3c(C)cccc3N3CCN(C)CC3)cc21
21.3

Need IC50 at 48 h, item COc1cc(OC)cc(-c2cc3cnc(Nc4c(C)cccc4N4CCOCC4)cc3n(CCCO)c2=O)c1
19.5

Need IC50 at 48 h, item COc1cc(OC)c(Cl)c(-c2cc3cnc(Nc4c(C)cccc4N4CCCCC4)cc3n(CCCN3CCCCC3)c2=O)c1Cl
25.1

Need IC50 at 48 h, item C=CC(=O)NCCCn1c(=O)c(-c2c(Cl)c(OC)cc(OC)c2Cl)cc2cnc(Nc3c(C)cccc3NC(=O)C=C)cc21
23.8

Need IC50 at 48 h, item C=CC(=O)Nc1cccc(C)c1Nc1cc2c(cn1)cc(-c1c(Cl)c(OC)cc(OC)c1Cl)c(=O)n2CCCO
24

###

For each record, write down the corresponding pIC50.
- Tested on: RKO
- method_description: cells
- conditions_used: Homo sapiens, 48 h
- Description: Antiproliferative activity against human RKO cells assessed as inhibition of cell growth incubated for 48 hrs by MTT assay
Scale note: pIC50 = -log10(concentration in M).

Need pIC50, item C=CC(=O)Nc1cccc(C)c1Nc1ncc2cc(-c3c(Cl)c(OC)cc(OC)c3Cl)ccc2n1
4.71

Need pIC50, item COc1cc(OC)c(Cl)c(-c2cc3cnc(Nc4c(C)cccc4N4CCCCC4)cc3n(CCCN3CCCCC3)c2=O)c1Cl
4.95

Need pIC50, item COc1cc(OC)cc(-c2cc3cnc(Nc4c(C)cccc4N4CCOCC4)cc3n(CCCO)c2=O)c1
5.03

Need pIC50, item C=CC(=O)Nc1cccc(C)c1Nc1cc2c(cn1)cc(-c1c(Cl)c(OC)cc(OC)c1Cl)c(=O)n2CCCO
5.03

Need pIC50, item C=CC(=O)NCCCn1c(=O)c(-c2c(Cl)c(OC)cc(OC)c2Cl)cc2cnc(Nc3c(C)cccc3NC(=O)C=C)cc21
4.94

Need pIC50, item C=CC(=O)NCCCn1c(=O)c(-c2cc(OC)cc(OC)c2)cc2cnc(Nc3c(C)cccc3N3CCN(C)CC3)cc21
4.94
